- Experimental System: T1, exemplary TAT frataxin fusion molecule (HIV-1, UniProt Q16595 1-210)
- T1 construct: in the bridging assays biotinylated and sulfotagged forms were used; also called TAT-FXN fusion molecule; TAT FXN fusion molecule
- T1 sequence: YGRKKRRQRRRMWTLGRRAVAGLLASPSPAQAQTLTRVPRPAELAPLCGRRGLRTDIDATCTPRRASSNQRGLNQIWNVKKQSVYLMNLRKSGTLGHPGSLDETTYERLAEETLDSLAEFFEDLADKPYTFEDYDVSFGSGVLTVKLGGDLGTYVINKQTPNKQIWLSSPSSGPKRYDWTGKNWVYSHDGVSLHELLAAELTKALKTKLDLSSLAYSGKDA
- Assay: PK sandwich ELISA in human plasma, antibody as capture, HRP anti-frataxin mAb detection
Provide the reported Mean OD at plasma conc. 25.6 ng/mL of each item.
Numbers only, in OD.

Examples with their reported Mean OD at plasma conc. 25.6 ng/mL follow.
antibody 12-1 (antibody, V domains shown, Rabbit monoclonal) VH: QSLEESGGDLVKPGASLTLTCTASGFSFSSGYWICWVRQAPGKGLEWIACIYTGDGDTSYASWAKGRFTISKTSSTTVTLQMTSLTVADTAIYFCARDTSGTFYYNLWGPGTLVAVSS VL: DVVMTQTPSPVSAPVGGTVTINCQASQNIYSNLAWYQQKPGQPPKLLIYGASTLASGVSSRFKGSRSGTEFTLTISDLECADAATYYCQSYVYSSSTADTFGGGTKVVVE ... 1.44
antibody 10-12 (antibody, V domains shown, Rabbit monoclonal) VH: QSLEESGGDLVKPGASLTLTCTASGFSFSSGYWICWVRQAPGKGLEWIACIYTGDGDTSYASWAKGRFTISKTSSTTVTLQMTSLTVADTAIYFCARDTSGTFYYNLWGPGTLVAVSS VL: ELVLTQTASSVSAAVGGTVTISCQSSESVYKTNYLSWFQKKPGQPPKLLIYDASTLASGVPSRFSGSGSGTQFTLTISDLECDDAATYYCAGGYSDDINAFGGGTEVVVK ... 1.4
antibody 10-4 (antibody, V domains shown, Rabbit monoclonal) VH: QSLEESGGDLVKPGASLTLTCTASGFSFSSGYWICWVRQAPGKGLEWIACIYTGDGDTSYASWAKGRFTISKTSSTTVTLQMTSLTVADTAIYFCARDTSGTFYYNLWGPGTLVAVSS VL: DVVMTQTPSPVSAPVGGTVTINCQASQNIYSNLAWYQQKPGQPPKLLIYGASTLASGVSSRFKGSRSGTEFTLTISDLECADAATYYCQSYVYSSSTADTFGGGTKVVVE ... 1.41
antibody 12-10 (antibody, V domains shown, Rabbit monoclonal) VH: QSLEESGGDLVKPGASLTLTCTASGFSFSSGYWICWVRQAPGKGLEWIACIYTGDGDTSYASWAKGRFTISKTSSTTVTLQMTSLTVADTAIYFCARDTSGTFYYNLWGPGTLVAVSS VL: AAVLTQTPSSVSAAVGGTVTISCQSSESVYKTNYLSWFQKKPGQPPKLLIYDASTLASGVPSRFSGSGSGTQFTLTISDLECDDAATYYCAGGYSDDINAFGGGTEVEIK ... 1.51

For each listed entry, give its Mean OD at plasma conc. 25.6 ng/mL.
1. antibody 10-5 (antibody, V domains shown, Rabbit monoclonal) VH: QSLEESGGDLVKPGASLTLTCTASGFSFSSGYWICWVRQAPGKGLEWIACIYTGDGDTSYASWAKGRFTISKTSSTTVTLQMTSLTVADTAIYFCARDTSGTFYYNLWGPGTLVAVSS VL: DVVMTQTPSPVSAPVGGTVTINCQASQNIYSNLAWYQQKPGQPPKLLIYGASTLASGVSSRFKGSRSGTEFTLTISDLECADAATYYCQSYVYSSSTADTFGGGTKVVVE
2. antibody 10-9 (antibody, V domains shown, Rabbit monoclonal) VH: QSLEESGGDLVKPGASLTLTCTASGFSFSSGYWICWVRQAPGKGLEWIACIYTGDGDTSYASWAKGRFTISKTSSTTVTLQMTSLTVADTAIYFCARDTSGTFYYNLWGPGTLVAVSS VL: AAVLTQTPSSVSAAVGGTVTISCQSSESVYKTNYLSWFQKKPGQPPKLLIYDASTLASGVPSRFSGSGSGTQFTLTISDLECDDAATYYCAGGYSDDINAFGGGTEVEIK
3. antibody 10-1 (antibody, V domains shown, Rabbit monoclonal) VH: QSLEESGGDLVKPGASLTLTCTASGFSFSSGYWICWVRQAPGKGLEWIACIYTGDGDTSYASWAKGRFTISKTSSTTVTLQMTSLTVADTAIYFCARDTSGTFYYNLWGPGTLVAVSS VL: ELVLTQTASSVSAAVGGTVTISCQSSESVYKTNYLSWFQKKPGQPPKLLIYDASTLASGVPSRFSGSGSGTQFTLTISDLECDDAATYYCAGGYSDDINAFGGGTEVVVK
4. antibody 12-3 (antibody, V domains shown, Rabbit monoclonal) VH: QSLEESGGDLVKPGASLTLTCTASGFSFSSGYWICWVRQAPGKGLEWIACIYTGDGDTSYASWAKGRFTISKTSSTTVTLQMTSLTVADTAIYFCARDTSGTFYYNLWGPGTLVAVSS VL: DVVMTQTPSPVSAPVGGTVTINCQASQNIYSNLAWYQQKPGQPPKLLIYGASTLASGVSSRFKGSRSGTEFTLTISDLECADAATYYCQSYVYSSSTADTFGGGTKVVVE
5. antibody 12-8 (antibody, V domains shown, Rabbit monoclonal) VH: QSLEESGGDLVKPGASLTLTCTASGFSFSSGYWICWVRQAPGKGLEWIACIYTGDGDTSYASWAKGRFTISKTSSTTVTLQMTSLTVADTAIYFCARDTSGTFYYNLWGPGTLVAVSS VL: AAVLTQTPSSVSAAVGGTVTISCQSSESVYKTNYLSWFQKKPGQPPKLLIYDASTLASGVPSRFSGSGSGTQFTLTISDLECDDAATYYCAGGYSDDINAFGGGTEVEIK

1.53
1.49
1.44
1.45
1.45
